test: in vitro; conditions: human, 25% (v/v) normal human serum
We begin with a simple list: items and their reported remaining at 5 h, 50 µg/mL.

# MOLECULE, UNIT OF MEASURE, remaining at 5 h, 50 µg/mL
data = [
    ("CCCCCCC(CCCC)C(=O)N[C@@H](CCCNC(=N)N)C(=O)N[C@@H](CCCNC(=N)N)C(=O)N[C@@H](CSSC[C@H](NC(=O)[C@H](CCCNC(=N)N)NC(=O)[C@H](CCCNC(=N)N)NC(=O)C(CCCC)CCCCCC)C(N)=O)C(N)=O (some centres unmarked) [Compound C7]", "%", 59.4),
    ("CCCCCCC(CCCC)C(=O)N[C@@H](CCCNC(=N)N)C(=O)N[C@@H](CCCNC(=N)N)C(=O)NCCCC[C@H](NC(=O)[C@H](CCCNC(=N)N)NC(=O)[C@H](CCCNC(=N)N)NC(=O)C(CCCC)CCCCCC)C(N)=O (some centres unmarked) [Compound B7]", "%", 63.2),
]

---

We begin with a simple list: items and their reported MIC C. albicans ATCC 10231.
system: C. albicans ATCC 10231; details: ATCC 10231, 24 h
Where a SMILES comes first, the peptide text is derived from it. Bridges are numbered along the chain shown (N, C = ends). Roman numbers before positions name the chains, in order. Side-chain parts run from the residue outwards. The star is where a group is joined. Myristoyl = CCCCCCCCCCCCCC(=O)*; Decanoyl = CCCCCCCCCC(=O)*; Octanoyl = CCCCCCCC(=O)*
ENDPOINT LABEL: MIC C. albicans ATCC 10231 (µg/mL)

# COMPOUND, TEST TARGET, ENDPOINT LABEL, EXPERIMENTAL VALUE
measured = [
    ("CCCCCCCCCC(=O)N[C@@H](CCCNC(=N)N)C(=O)N[C@@H](CCCNC(=N)N)C(=O)NCCCC[C@H](NC(=O)[C@H](CCCNC(=N)N)NC(=O)[C@H](CCCNC(=N)N)NC(=O)CCCCCCCCC)C(N)=O [Compound B2] (Decanoyl-Arg-Arg-Lys([Arg-Arg-Decanoyl])-NH2)", "C. albicans ATCC 10231", "MIC C. albicans ATCC 10231", 8),
    ("CCCCCCCC(=O)N[C@@H](Cc1ccccc1)C(=O)N[C@@H](CCCNC(=N)N)C(=O)N[C@@H](CCCNC(=N)N)C(=O)NCCCC[C@H](NC(=O)[C@H](CCCNC(=N)N)NC(=O)[C@H](CCCNC(=N)N)NC(=O)[C@H](Cc1ccccc1)NC(=O)CCCCCCC)C(N)=O [Compound B5] (Octanoyl-FRRK([Arg-Arg-Phe-Octanoyl])-NH2)", "C. albicans ATCC 10231", "MIC C. albicans ATCC 10231", 16),
    ("CCCCCCCCCCCCCC(=O)N[C@@H](CCCNC(=N)N)C(=O)N[C@@H](CCCNC(=N)N)C(=O)N[C@@H](CSSC[C@H](NC(=O)[C@H](CCCNC(=N)N)NC(=O)[C@H](CCCNC(=N)N)NC(=O)CCCCCCCCCCCCC)C(N)=O)C(N)=O [Compound C4] (I: Myristoyl-Arg-Arg-Cys-NH2 / II: Myristoyl-Arg-Arg-Cys-NH2; disulfide I:3-II:3)", "C. albicans ATCC 10231", "MIC C. albicans ATCC 10231", 2),
    ("CCCCCCCCCCCCCC(=O)N[C@@H](CCCNC(=N)N)C(=O)N[C@@H](CCCNC(=N)N)C(N)=O [Compound A4, C14-RR-NH2] (Myristoyl-Arg-Arg-NH2)", "C. albicans ATCC 10231", "MIC C. albicans ATCC 10231", 8),
    ("CCCCCCCC(=O)N[C@@H](CCCNC(=N)N)C(=O)N[C@@H](CCCNC(=N)N)C(=O)N[C@@H](CSSC[C@H](NC(=O)[C@H](CCCNC(=N)N)NC(=O)[C@H](CCCNC(=N)N)NC(=O)CCCCCCC)C(N)=O)C(N)=O [Compound C1] (I: Octanoyl-Arg-Arg-Cys-NH2 / II: Octanoyl-Arg-Arg-Cys-NH2; disulfide I:3-II:3)", "C. albicans ATCC 10231", "MIC C. albicans ATCC 10231", 128),
]

---

test system: C. glabrata ATCC 15126; conditions: ATCC 15126, 24 h
Where a SMILES comes first, the peptide text is derived from it. Bridges are numbered along the chain shown (N, C = ends). Roman numbers before positions name the chains, in order. Side-chain parts run from the residue outwards. The star is where a group is joined. Myristoyl = CCCCCCCCCCCCCC(=O)*; Octanoyl = CCCCCCCC(=O)*

# MOLECULE, TEST TARGET, UNIT OF MEASURE, MIC C. glabrata ATCC 15126
measured = [
    ("CCCCCCCCCCCCCC(=O)N[C@@H](CCCNC(=N)N)C(=O)N[C@@H](CCCNC(=N)N)C(=O)N[C@@H](CSSC[C@H](NC(=O)[C@H](CCCNC(=N)N)NC(=O)[C@H](CCCNC(=N)N)NC(=O)CCCCCCCCCCCCC)C(N)=O)C(N)=O [Compound C4] (I: Myristoyl-Arg-Arg-Cys-NH2 / II: Myristoyl-Arg-Arg-Cys-NH2; disulfide I:3-II:3)", "C. glabrata ATCC 15126", "µg/mL", 1),
    ("CCCCCCCC(=O)N[C@@H](CCCNC(=N)N)C(=O)N[C@@H](CCCNC(=N)N)C(=O)NCCCC[C@H](NC(=O)[C@H](CCCNC(=N)N)NC(=O)[C@H](CCCNC(=N)N)NC(=O)CCCCCCC)C(N)=O [Compound B1] (Octanoyl-Arg-Arg-Lys([Arg-Arg-Octanoyl])-NH2)", "C. glabrata ATCC 15126", "µg/mL", 64),
]

---

List of MIC E. coli ML-35 (ATCC 43827) tested on E. coli ML-35 (ATCC 43827).
Where a SMILES comes first, the peptide text is derived from it. Bridges are numbered along the chain shown (N, C = ends). Roman numbers before positions name the chains, in order. Side-chain parts run from the residue outwards. The star is where a group is joined. Myristoyl = CCCCCCCCCCCCCC(=O)*; Decanoyl = CCCCCCCCCC(=O)*

# COMPOUND, UNIT OF MEASURE, MIC E. coli ML-35 (ATCC 43827)
data = [
    ("CCCCCCCCCC(=O)N[C@@H](CCCNC(=N)N)C(=O)N[C@@H](CCCNC(=N)N)C(=O)NCCCC[C@H](NC(=O)[C@H](CCCNC(=N)N)NC(=O)[C@H](CCCNC(=N)N)NC(=O)CCCCCCCCC)C(N)=O [Compound B2] (Decanoyl-Arg-Arg-Lys([Arg-Arg-Decanoyl])-NH2)", "µg/mL", 32),
    ("CCCCCCC(CCCC)C(=O)N[C@@H](CCCNC(=N)N)C(=O)N[C@@H](CCCNC(=N)N)C(=O)NCCCC[C@H](NC(=O)[C@H](CCCNC(=N)N)NC(=O)[C@H](CCCNC(=N)N)NC(=O)C(CCCC)CCCCCC)C(N)=O (some centres unmarked) [Compound B7]", "µg/mL", 32),
    ("CCCCCCC(CCCC)C(=O)N[C@@H](CCCNC(=N)N)C(=O)N[C@@H](CCCNC(=N)N)C(=O)N[C@@H](CSSC[C@H](NC(=O)[C@H](CCCNC(=N)N)NC(=O)[C@H](CCCNC(=N)N)NC(=O)C(CCCC)CCCCCC)C(N)=O)C(N)=O (some centres unmarked) [Compound C7]", "µg/mL", 64),
    ("CCCCCCCCCCCCCC(=O)N[C@@H](CCCNC(=N)N)C(=O)N[C@@H](CCCNC(=N)N)C(N)=O [Compound A4, C14-RR-NH2] (Myristoyl-Arg-Arg-NH2)", "µg/mL", 32),
    ("CCCCCCCCCC(=O)N[C@@H](CCCNC(=N)N)C(=O)N[C@@H](CCCNC(=N)N)C(=O)N[C@@H](CSSC[C@H](NC(=O)[C@H](CCCNC(=N)N)NC(=O)[C@H](CCCNC(=N)N)NC(=O)CCCCCCCCC)C(N)=O)C(N)=O [Compound C2] (I: Decanoyl-Arg-Arg-Cys-NH2 / II: Decanoyl-Arg-Arg-Cys-NH2; disulfide I:3-II:3)", "µg/mL", 32),
]

---

We begin with a simple list: items and their reported MIC Enterococcus faecium ATCC 700221.
test system: Enterococcus faecium ATCC 700221; details: ATCC 700221, 24 h
Where a SMILES comes first, the peptide text is derived from it. Side-chain parts run from the residue outwards. The star is where a group is joined. Myristoyl = CCCCCCCCCCCCCC(=O)*; Decanoyl = CCCCCCCCCC(=O)*

# COMPOUND, MIC Enterococcus faecium ATCC 700221 (µg/mL)
rows = [
    ("CCCCCCCCCC(=O)N[C@@H](CCCNC(=N)N)C(=O)N[C@@H](CCCNC(=N)N)C(=O)NCCCC[C@H](NC(=O)[C@H](CCCNC(=N)N)NC(=O)[C@H](CCCNC(=N)N)NC(=O)CCCCCCCCC)C(N)=O [Compound B2] (Decanoyl-Arg-Arg-Lys([Arg-Arg-Decanoyl])-NH2)", 2),
    ("CCCCCCCCCCCCCC(=O)N[C@@H](CCCNC(=N)N)C(=O)N[C@@H](CCCNC(=N)N)C(N)=O [Compound A4, C14-RR-NH2] (Myristoyl-Arg-Arg-NH2)", 8),
]
